# reported apparent KD of MS2 coat protein; entries follow
# Tested on: MS2 coat protein
# procedure_text: apparent KD of MS2 coat protein, switch OFF state (with FMN for OFF switches, without FMN for ON switches); designed switch direction (-1 OFF switch, 1 ON switch): 1; higher = weaker reporter binding
# applied_conditions: FMN input: 0 or 200 uM; Eterna round: R93 (includes R88 designs)
Field format: number, assumed nM, no unit text.

{"columns": ["sequence_entry", "apparent KD of MS2 coat protein / nM"],
 "data": [
  ["CGGAGACAUGAGGAUCACCCAUGUGAGAAGAGGCGAGGAUAUCGAAAGAAAGAAGAGAAACGAGAAGGCGCGAGAA [salish99-SS1-065]", 32.8]
]}

// lookup apparent KD of MS2 coat protein for UAAAAACAUGAGGAUCACCCAUGUGAAAAUAUGGGAGGAUAUACAAAGACGAGAGUCAAAGUAGAAGGCCUAAAAU [Mat - Same State 1 - Eli mod - D88]
115

---

# System: MS2 coat protein
# procedure_text: apparent KD of MS2 coat protein; designed switch direction (-1 OFF switch, 1 ON switch): -1; higher = weaker reporter binding
# applied_conditions: input ligand: none
quantity: apparent KD of MS2 coat protein (nM)
Just the number in nM, nothing appended.

Reference set, count: 2
{"columns": ["sequence_entry", "result_unit", "value"],
 "data": [
  ["AGCAGACGAGGAUAUGAUAAUUAAUACAUGAGGAUCACCCAUGUAAUACUGAUCCAUGGAUCAGAAGGCGUCUGCU [E5/4-A1] (Eterna round: R97, puzzle: Exclusion 5)", "nM", 17.6],
  ["UGCUACGGAGGAUAUACAUGAGGAUCACCCAUGUGUGAGAUUUGGCCGAGAGGCCAGUGUAGAAGGCCGUAGCU [jl-ex3-4.19 jl mod] (Eterna round: R97, puzzle: Exclusion 3)", "nM", 193]
]}

Entry under review: AGCAUGUGAGGAUAUGCGAAGGGAAGGAGAGGGAAAGAGAAGCAGAAGGCACAUGAGGAUCACCCAUGUAAGGG [AK-MS2ROC-r4-exclusion4-8.1] (Eterna round: R97, puzzle: Exclusion 4) . Reported apparent KD of MS2 coat protein?
969

---

# Test system: MS2 coat protein
# procedure_text: apparent KD of MS2 coat protein; designed switch direction (-1 OFF switch, 1 ON switch): -1; higher = weaker reporter binding
# applied_conditions: input ligand: none
Label MET for high-side apparent KD of MS2 coat protein (at or above 100 nM) and NOT MET for low-side apparent KD of MS2 coat protein (below it).

{"columns": ["sequence_entry", "assigned_class"],
 "data": [
  ["UCCUUACUGGUCAGGAUAUACAUUCGCGGGUGGGUGUAGAAGGGACAUGAGGAUCACCCAUGUACGUUACAUCC [alecazam54g] (Eterna round: R97, puzzle: Brourd's mod of Exclusion 4)", "NOT MET"],
  ["ACAUGAGGAUCACCCAUGUCCGGCUGGUCUGUUCCGGCUGUCGAGGAUAUAGUUCGGUGUUCGCGCUAGAAGGCGGGAGCUGGA [Aenatbe mod 52] (Eterna round: R96, puzzle: Exclusion NG 3)", "MET"],
  ["UUAAUUAAUUUAUUAGAUCCUCACAUGAGGAUCACCCAUGUGCAGGAUAUCAGCUCGUUUAGAGCUGAGAAGGGCACUAUAAAU [ExNG3/10-B2] (Eterna round: R96, puzzle: Exclusion NG 3)", "NOT MET"]
]}

Please tell me: is the sequence GGCACACAUGUAGGAUAUCUGCACGAUUAGUGCAGAGAAGGACAUGAGGAUCACCCAUGUAAUUAAGAUCAAUUAUUAAGUGCC [ENG1/3-A1] (Eterna round: R96, puzzle: Exclusion NG 1) at or over 100 nM in terms of apparent KD of MS2 coat protein?
NOT MET

API: above_or_equal(metric=apparent KD of MS2 coat protein, cutoff=100 nM) for item CCGCUACAUGAGGAUCACCCAUGUCAGGAUAUCGUACGUUCGUCGAUAGACGAUCGUACGAGAAGGGUGUGCGG [Mat - Exclusion 1 - Eli Mod - D36] (Eterna round: R97, puzzle: Exclusion 1)
MET

API: above_or_equal(metric=apparent KD of MS2 coat protein, cutoff=100 nM) for item GCGUUCUGAGGAUAUACAUGAGGAUCACCCAUGUUGAGAAUUAUGUAUAAAAGAUUAUGUAGAAGGCAGAGUGC [JR_Ex3_Sub071] (Eterna round: R97, puzzle: Exclusion 3)
MET

// inclusive: apparent KD of MS2 coat protein at least 100 nM? input: GCUACCAGAGUGAGGAUAUCGGAUGCGCAAGCACACGAGAAGGCACAUGAGGAUCACCCAUGUAUGGUAGCCGU [eternacac ex4r4 #9] (Eterna round: R97, puzzle: Brourd's mod of Exclusion 4)
NOT MET
